From: patent US20260325685A1

# target.entity: human CA-IX (Homo sapiens)
# Construct: purchased Acro CA9-H82E3
# run.description: Surface Plasmon Resonance (SPR) binding kinetics to recombinant human CA-IX (Biacore 8K, single-cycle kinetics, 1:1 binding model)
# condition.label: Chelated Metal: Lu-175; SPR, 25° C., pH 7.4; read-out: CAIX KD
pKd: −log10 of the molar value.
readout.kind: pKd

compound	pKd
CC(CCC(=O)N[C@@H](CC(=O)N[C@@H](CC(=O)N[C@@H](CCCCn1cc([C@H]2CC[C@H](C(=O)Nc3nnc(S(N)(=O)=O)s3)CC2)nn1)C(=O)NCCOCCOCCNC(=O)CN1CCN(CC(=O)O)CCN(CC(=O)O)CCN(CC(=O)O)CC1)C(=O)O)C(=O)O)(c1ccc(O)cc1)c1ccc(O)cc1.[Lu+3] [Compound 100.4]	> 9.00

pKd for CC(CCC(=O)N[C@@H](CC(=O)N[C@@H](CC(=O)N1CCN(C(=O)CN2CCN(CC(=O)O)CCN(CC(=O)O)CCN(CC(=O)O)CC2)C[C@H]1C(=O)NCCn1cc(C23CC(C(=O)Nc4nnc(S(N)(=O)=O)s4)(C2)C3)nn1)C(=O)O)C(=O)O)(c1ccc(O)cc1)c1ccc(O)cc1.[Lu+3] [Compound 107.38] is > 9.00
